- testSummary: Human HepG2 cell viability assay in 384 well format
- Format: toxicity, cell-based
- Design: dose 125 nL, time 70.5 hour; concentration not given beside the values
- studyConditions: HepG2 cells, read-out: Inhibition
cytotoxicity at 70.5 h overview
Supply the numeric figure in %, leaving out any unit text.

Request: Which cytotoxicity at 70.5 h value is on record for CCC(C)NC(=O)CS(=O)(=O)Cc1cc(Cl)ccc1OC (stereo not drawn) ?
Response: -12

Request: Another molecule to look at: `COc1ccc(CCNC(=O)Cn2ncc3c2c(C)nn3C)cc1`
Response: -12.7

Request: For `Cc1ccc(-c2cn3c(n2)CO[C@@H](CNCc2cnn(C)c2)C3)cc1` then?
Response: 6.98

Request: What about this molecule? CC(C)=CCN1CCN(C(=O)C2CCS(=O)(=O)C2)CC1 (stereo not drawn)
Response: 0.157

Request: Next entry: `O=C(C1CCOCC1)N1CCC(OCc2cccnc2)CC1`
Response: -12

Request: Then this molecule: `O=S1(=O)C[C@@H]2[C@H](C1)N(Cc1ncc[nH]1)CCN2C/C=C/c1ccccc1`
Response: -7.45

Request: // repeat for `COCc1ncn2c1CN(C(=O)Nc1cccc(OC)c1)CC2` and report
Response: 19.8

Request: Param item: COc1cccc(NC(=O)N2CCC(O)(C(F)(F)F)C2)c1 (stereo not drawn)
Response: -2.52

====

cytotoxicity at 70.5 h values, listed per item
- testSummary: Human HepG2 cell viability assay in 384 well format
- Type: toxicity, cell-based
- Set-up: dose 125 nL, time 70.5 hour; concentration not given beside the values
- studyConditions: HepG2 cells, read-out: Inhibition
# unit: % | format: bare number

Solved cases (3 shown):
O=C([C@H]1C[C@@H]2CCN(C3CCOCC3)C[C@H]2O1)N1CCCC1    -4.47
CN(C)Cc1cncc2c1CCN(CC(=O)N(C)C)C2    10.2
Cc1noc(C)c1-c1cncc(C2CCCN2Cc2cc[nH]n2)n1 (stereo not drawn)    -3.25

Request: Find the recorded cytotoxicity at 70.5 h belonging to `COc1ncc(C(=O)NCc2ccc(Br)cc2)cn1` and report it.
Response: -2.74

Request: `CC(C)=CCN1CC2(CCN(Cc3ncc[nH]3)CC2)CC1=O` , same question.
Response: 11.6

Request: Same question, `Clc1cc(NCc2ccncc2)nc2[nH]ccc12` this time
Response: 13

Request: Please give the result for `Cn1ccnc1CNC(=O)c1cnc(C2CCNCC2)cn1` too.
Response: 28.1

Request: And the next one, `CC(C)(CNC(=O)c1ccco1)CNC(=O)c1ccco1` ?
Response: -1.35

Request: Likewise for `Cc1ccc(C(=O)N2CCC3(CC2)c2ccccc2[C@@H](N)[C@@H]3O)c(=O)[nH]1` ?
Response: -7.97

====

- testSummary: Human HepG2 cell viability assay in 384 well format
- Assay type: toxicity, cell-based
- Design: dose 125 nL, time 70.5 hour; concentration not given beside the values
- studyConditions: HepG2 cells, read-out: Inhibition
Below, each entry is listed alongside its reported cytotoxicity at 70.5 h.
I'd appreciate it if you wrote the number followed by its unit.

COc1c(C2CCCN2C(=O)c2ccoc2C)c(C)nn1C (stereo not given)    7.26%
COc1ccc(-c2noc(C(=O)NCCN3CCCCC3)n2)cc1OC    26.1%
O=S(=O)(NCC1(O)CCOc2ccccc21)c1ccc(Cl)s1 (stereo not given)    -6.65%
COCCNC(=O)CCN1C(=O)CC2(CCCC2)C1=O    -15.7%
Cc1occc1C(=O)N1CCC2(CCC(C(=O)NCC3CC3)O2)CC1 (stereo not given)    -12.7%

In the following, a different compound is considered.
Request: Param item = `CS(=O)(=O)NC[C@]12COC[C@H]1CN(C(=O)C1CC(F)(F)C1)C2` ; retrieve measured cytotoxicity at 70.5 h.
Response: -2.39%
